Every entry's value here was drawn from ChEMBL document CHEMBL2203114.

- assayText: Clearance in dog at 1 mg/kg, iv
- particulars: in vivo
measuredAttribute: clearance (mL/min/kg)
Answer in mL/min/kg, number only, no unit symbol.

Provide only the value of recorded clearance for Cc1nc([C@@H]2N[C@@H](c3nc(-c4ccc(F)cc4)c[nH]3)Cc3c2[nH]c2ccccc32)no1
1.78

---

- assayText: Clearance in rhesus monkey at 1 mg/kg, iv
- particulars: in vivo
measuredAttribute: clearance (mL/min/kg)
Answer in mL/min/kg, number only, no unit symbol.

Provide only the value of recorded clearance for Cc1nc([C@@H]2N[C@@H](c3nc(-c4ccc(F)cc4)c[nH]3)Cc3c2[nH]c2ccccc32)no1
2.79
